- Test system: HL-60
- Assay protocol: Cytotoxicity against human HL60 cells assessed as reduction in cell viability at 10 uM incubated for 72 hrs by Celltiter-Glo assay
- Type: cell-based
- Condition description: hl-60, 72 h
Property measured: Activity

[
  {
    "Compound": "CCOC(=O)[C@H](Cc1ccccc1)NP(=O)(CCN1CCC[C@H]1Cn1cnc2c(=O)[nH]cnc21)N[C@@H](Cc1ccccc1)C(=O)OCC",
    "Property measured": "Activity",
    "Reported": "Non-Toxic"
  },
  {
    "Compound": "CCOC(=O)[C@H](Cc1ccccc1)NP(=O)(CCN1CCC[C@H]1Cn1cnc2c(=O)[nH]c(N)nc21)N[C@@H](Cc1ccccc1)C(=O)OCC",
    "Property measured": "Activity",
    "Reported": "Non-Toxic"
  },
  {
    "Compound": "CCOC(=O)[C@H](Cc1ccccc1)NP(=O)(CN1CCCC(Cn2cnc3c(=O)[nH]cnc32)C1)N[C@@H](Cc1ccccc1)C(=O)OCC (stereo partly drawn)",
    "Property measured": "Activity",
    "Reported": "Non-Toxic"
  }
]

---

- Test system: NHDF
- Assay protocol: Cytotoxicity against human NHDF cells assessed as reduction in cell viability at 10 uM incubated for 72 hrs by Celltiter-Glo assay
- Assay type: cell-based

[
  {
    "Molecule": "CCOC(=O)[C@H](Cc1ccccc1)NP(=O)(CN1CCCC(Cn2cnc3c(=O)[nH]c(N)nc32)C1)N[C@@H](Cc1ccccc1)C(=O)OCC (stereo partly drawn)",
    "Activity": "Non-Toxic"
  },
  {
    "Molecule": "CCOC(=O)[C@H](Cc1ccccc1)NP(=O)(CCN1CCN(CP(=O)(N[C@@H](Cc2ccccc2)C(=O)OCC)N[C@@H](Cc2ccccc2)C(=O)OCC)CC1Cn1cnc2c(=O)[nH]cnc21)N[C@@H](Cc1ccccc1)C(=O)OCC (stereo partly drawn)",
    "Activity": "Non-Toxic"
  },
  {
    "Molecule": "CCOC(=O)[C@H](Cc1ccccc1)NP(=O)(CN1CCCC(Cn2cnc3c(=O)[nH]cnc32)C1)N[C@@H](Cc1ccccc1)C(=O)OCC (stereo partly drawn)",
    "Activity": "Non-Toxic"
  }
]

---

- Assay protocol: Selectivity index, ratio of Ki for human HGPRT to Ki for Plasmodium vivax HGPRT
- Assay type: toxicity
Property measured: Ratio Ki
Keep the answer to the number alone.

Documented Ratio Ki of Nc1nc2c(ncn2CC2CN(CCP(=O)([O-])[O-])CCN2CCP(=O)([O-])[O-])c(=O)[nH]1.[Na+].[Na+].[Na+].[Na+] (stereo not given) : 0.025

Documented Ratio Ki of `Nc1nc2c(ncn2CCN(CCOCCP(=O)(O)O)CCP(=O)(O)O)c(=O)[nH]1` : 2.725

---

Field: viability at 72 h, 100 µM. Provide a value for each of the compounds that follow.
- Assay protocol: Cytotoxicity against human NHDF cells assessed as cell viability at 100 uM incubated for 72 hrs by Celltiter-Glo assay
- Format: cell-based
- Condition description: read-out: Activity
Supply the numeric figure in %, leaving out any unit text.

Documented viability at 72 h, 100 µM of `CCOC(=O)[C@H](Cc1ccccc1)NP(=O)(CCN1CCC[C@H]1Cn1cnc2c(=O)[nH]c(N)nc21)N[C@@H](Cc1ccccc1)C(=O)OCC` : 97

Documented viability at 72 h, 100 µM of `CCOC(=O)[C@H](Cc1ccccc1)NP(=O)(CCN1CCC[C@@H]1Cn1cnc2c(=O)[nH]cnc21)N[C@@H](Cc1ccccc1)C(=O)OCC` : 106

Documented viability at 72 h, 100 µM of `CCOC(=O)[C@H](Cc1ccccc1)NP(=O)(CCN1CCC[C@@H]1Cn1cnc2c(=O)[nH]c(N)nc21)N[C@@H](Cc1ccccc1)C(=O)OCC` : 103

Documented viability at 72 h, 100 µM of CCOC(=O)[C@H](Cc1ccccc1)NP(=O)(CCN1CCN(CP(=O)(N[C@@H](Cc2ccccc2)C(=O)OCC)N[C@@H](Cc2ccccc2)C(=O)OCC)CC1Cn1cnc2c(=O)[nH]cnc21)N[C@@H](Cc1ccccc1)C(=O)OCC (stereo partly drawn) : 3

Documented viability at 72 h, 100 µM of CCOC(=O)[C@H](Cc1ccccc1)NP(=O)(CN1CCCC(Cn2cnc3c(=O)[nH]c(N)nc32)C1)N[C@@H](Cc1ccccc1)C(=O)OCC (stereo partly drawn) : 103

Documented viability at 72 h, 100 µM of CCOC(=O)[C@H](Cc1ccccc1)NP(=O)(CN1CCCC(Cn2cnc3c(=O)[nH]cnc32)C1)N[C@@H](Cc1ccccc1)C(=O)OCC (stereo partly drawn) : 107

Documented viability at 72 h, 100 µM of `CCOC(=O)[C@H](Cc1ccccc1)NP(=O)(CCN1CCC[C@H]1Cn1cnc2c(=O)[nH]cnc21)N[C@@H](Cc1ccccc1)C(=O)OCC` : 117

Documented viability at 72 h, 100 µM of CCOC(=O)[C@H](Cc1ccccc1)NP(=O)(CCN1CCN(CP(=O)(N[C@@H](Cc2ccccc2)C(=O)OCC)N[C@@H](Cc2ccccc2)C(=O)OCC)CC1Cn1cnc2c(=O)[nH]c(N)nc21)N[C@@H](Cc1ccccc1)C(=O)OCC (stereo partly drawn) : 14

---

- Assay protocol: Cytotoxicity against human HepG2 cells assessed as cell viability at 100 uM incubated for 72 hrs by Celltiter-Glo assay
- Assay type: cell-based
- Condition description: read-out: Activity
Property measured: viability at 72 h, 100 µM (%)
Supply the numeric figure in %, leaving out any unit text.

Documented viability at 72 h, 100 µM of `CCOC(=O)[C@H](Cc1ccccc1)NP(=O)(CCN1CCC[C@H]1Cn1cnc2c(=O)[nH]cnc21)N[C@@H](Cc1ccccc1)C(=O)OCC` : 91

Documented viability at 72 h, 100 µM of CCOC(=O)[C@H](Cc1ccccc1)NP(=O)(CCN1CCN(CP(=O)(N[C@@H](Cc2ccccc2)C(=O)OCC)N[C@@H](Cc2ccccc2)C(=O)OCC)CC1Cn1cnc2c(=O)[nH]c(N)nc21)N[C@@H](Cc1ccccc1)C(=O)OCC (stereo partly drawn) : 104

Documented viability at 72 h, 100 µM of CCOC(=O)[C@H](Cc1ccccc1)NP(=O)(CN1CCCC(Cn2cnc3c(=O)[nH]c(N)nc32)C1)N[C@@H](Cc1ccccc1)C(=O)OCC (stereo partly drawn) : 103

Documented viability at 72 h, 100 µM of `CCOC(=O)[C@H](Cc1ccccc1)NP(=O)(CCN1CCC[C@@H]1Cn1cnc2c(=O)[nH]cnc21)N[C@@H](Cc1ccccc1)C(=O)OCC` : 98

Documented viability at 72 h, 100 µM of `CCOC(=O)[C@H](Cc1ccccc1)NP(=O)(CCN1CCC[C@@H]1Cn1cnc2c(=O)[nH]c(N)nc21)N[C@@H](Cc1ccccc1)C(=O)OCC` : 98

Documented viability at 72 h, 100 µM of `CCOC(=O)[C@H](Cc1ccccc1)NP(=O)(CCN1CCC[C@H]1Cn1cnc2c(=O)[nH]c(N)nc21)N[C@@H](Cc1ccccc1)C(=O)OCC` : 98

Documented viability at 72 h, 100 µM of CCOC(=O)[C@H](Cc1ccccc1)NP(=O)(CCN1CCN(CP(=O)(N[C@@H](Cc2ccccc2)C(=O)OCC)N[C@@H](Cc2ccccc2)C(=O)OCC)CC1Cn1cnc2c(=O)[nH]cnc21)N[C@@H](Cc1ccccc1)C(=O)OCC (stereo partly drawn) : 82

Documented viability at 72 h, 100 µM of CCOC(=O)[C@H](Cc1ccccc1)NP(=O)(CN1CCCC(Cn2cnc3c(=O)[nH]cnc32)C1)N[C@@H](Cc1ccccc1)C(=O)OCC (stereo partly drawn) : 105

---

Field: selectivity ratio. Provide a value for each of the molecules that follow.
- Assay protocol: Selectivity for antimalarial activity against Plasmodium falciparum over cytotoxicity against human NHDF cells
- Format: toxicity, cell-based
- Condition description: read-out: Selectivity Index

Documented selectivity ratio of `CCOC(=O)[C@H](Cc1ccccc1)NP(=O)(CCN1CCC[C@H]1Cn1cnc2c(=O)[nH]cnc21)N[C@@H](Cc1ccccc1)C(=O)OCC` : > 29

Documented selectivity ratio of `CCOC(=O)[C@H](Cc1ccccc1)NP(=O)(CCN1CCC[C@H]1Cn1cnc2c(=O)[nH]c(N)nc21)N[C@@H](Cc1ccccc1)C(=O)OCC` : > 35

---

Field: pKi. Provide a value for each of the compounds that follow.
- Tgt: Hypoxanthine-guanine phosphoribosyltransferase (Homo sapiens, UniProt P00492)
- Sequence (P00492 whole entry): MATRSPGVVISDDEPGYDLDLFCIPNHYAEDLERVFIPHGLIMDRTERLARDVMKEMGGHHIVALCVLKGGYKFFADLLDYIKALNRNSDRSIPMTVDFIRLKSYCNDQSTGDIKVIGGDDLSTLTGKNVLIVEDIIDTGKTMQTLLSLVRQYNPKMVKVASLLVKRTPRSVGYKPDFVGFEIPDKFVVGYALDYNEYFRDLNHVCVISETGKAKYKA
- Assay protocol: Inhibition of human HGPRT using PRib-PP as substrate by Hanes-plot based method
The quantity pKi is defined as the negative base-10 logarithm of the molar concentration.

Reading of pKi for Nc1nc2c(ncn2CC2CCCN(CP(=O)([O-])[O-])C2)c(=O)[nH]1.[Na+].[Na+] (stereo not given) with Hypoxanthine-guanine phosphoribosyltransferase (Homo sapiens, UniProt P00492): 5.15

Reading of pKi for `Nc1nc2c(ncn2[C@H]2CCN(C(=O)CP(=O)(O)O)C2)c(=O)[nH]1` with Hypoxanthine-guanine phosphoribosyltransferase (Homo sapiens, UniProt P00492): 4.14

Reading of pKi for O=c1[nH]cnc2c1ncn2CC1CN(CCP(=O)([O-])[O-])CCN1CCP(=O)([O-])[O-].[Na+].[Na+].[Na+].[Na+] (stereo not given) with Hypoxanthine-guanine phosphoribosyltransferase (Homo sapiens, UniProt P00492): 6.37

Reading of pKi for Nc1nc2c(ncn2CC2CN(CCP(=O)([O-])[O-])CCN2CCP(=O)([O-])[O-])c(=O)[nH]1.[Na+].[Na+].[Na+].[Na+] (stereo not given) with Hypoxanthine-guanine phosphoribosyltransferase (Homo sapiens, UniProt P00492): 6.82

Reading of pKi for `Nc1nc2c(ncn2C[C@@H]2CCCN2CCP(=O)([O-])[O-])c(=O)[nH]1.[Na+].[Na+]` with Hypoxanthine-guanine phosphoribosyltransferase (Homo sapiens, UniProt P00492): 5.05
